What IC50 was measured for each of the following?
system: MCF7 (breast cancer) cell line; test: MTT cytotoxicity assay, MCF7 cells; format: cell-based, human; conditions: Homo sapiens, MCF7, 72 h, read-out: IC50, MCF7
Numbers only, in µM.

Some solved entries appear below for comparison.
- COMPOUND: "O=C1OCC2=C1C1(C(=O)N(Cc3ccc(C(F)(F)F)cc3)c3cc(Br)c(Br)cc31)C1=C(N2)C(=O)c2ccccc2C1=O (stereo not drawn) [Compound 7n]"
  QUANTITY KIND: "IC50"
  MEASURED RESULT: 2.11
- COMPOUND: "O=C1OCC2=C1C1(C(=O)N(Cc3ccc(Cl)cc3)c3ccccc31)C1=C(N2)C(=O)c2ccccc2C1=O (stereo not drawn) [Compound 7j]"
  QUANTITY KIND: "IC50"
  MEASURED RESULT: 4.09
- COMPOUND: "O=C1OCC2=C1C1(C(=O)Nc3ccc(Cl)cc31)C1=C(N2)C(=O)c2ccccc2C1=O (stereo not drawn) [Compound 7b]"
  QUANTITY KIND: "IC50"
  MEASURED RESULT: 4.2

For every record below, what is its IC50?
1. O=C1OCC2=C1C1(C(=O)N(Cc3ccc(C(F)(F)F)cc3)c3ccccc31)C1=C(N2)C(=O)c2ccccc2C1=O (stereo not drawn) [Compound 7i]
2. O=C1OCC2=C1C1(C(=O)N(Cc3ccc(Br)cc3F)c3ccccc31)C1=C(N2)C(=O)c2ccccc2C1=O (stereo not drawn) [Compound 7k]
3. O=C1OCC2=C1C1(C(=O)Nc3ccc(Br)cc31)C1=C(N2)C(=O)c2ccccc2C1=O (stereo not drawn) [Compound 7d]
4. O=C1OCC2=C1C1(C(=O)N(Cc3ccccc3)c3ccccc31)C1=C(N2)C(=O)c2ccccc2C1=O (stereo not drawn) [Compound 7h]
5. O=C1OCC2=C1C1(C(=O)N(Cc3ccc(C(F)(F)F)cc3)c3ccc(Cl)cc31)C1=C(N2)C(=O)c2ccccc2C1=O (stereo not drawn) [Compound 7l]

[3.72, 15.1, 2.07, 3.73, 13.4]

Return IC50 (reported value) for this compound: O=C1OCC2=C1C1(C(=O)Nc3ccccc31)C1=C(N2)C(=O)c2ccccc2C1=O (stereo not drawn) [Compound 7a] 1.95

----------
tested on: A549 (non-small lung cancer) cell line; assay: MTT cytotoxicity assay, A549 cells; format: cell-based, human; details: Homo sapiens, A549, 72 h, read-out: IC50, A549
QUANTITY KIND: IC50 (µM)
One number for each entry, in µM.

Some solved entries appear below for comparison.
- COMPOUND: "Cc1c2ccncc2c(C)c2c1[nH]c1ccccc12 [Ellipticine, reference compound]"
  IC50 (µM): 1.34
- COMPOUND: "O=C1OCC2=C1C1(C(=O)Nc3ccc(Br)cc31)C1=C(N2)C(=O)c2ccccc2C1=O (stereo not drawn)"
  IC50 (µM): 1.62
- COMPOUND: "O=C1OCC2=C1C1(C(=O)Nc3c(Br)cc(Br)cc31)C1=C(N2)C(=O)c2ccccc2C1=O (stereo not drawn)"
  IC50 (µM): 0.9
- COMPOUND: "O=C1OCC2=C1C1(C(=O)N(Cc3ccc(Br)cc3F)c3ccccc31)C1=C(N2)C(=O)c2ccccc2C1=O (stereo not drawn)"
  IC50 (µM): 14
- COMPOUND: "O=C1OCC2=C1C1(C(=O)N(Cc3ccccc3)c3ccccc31)C1=C(N2)C(=O)c2ccccc2C1=O (stereo not drawn)"
  IC50 (µM): 1.71

For every record below, what is its IC50?
1. O=C1OCC2=C1C1(C(=O)N(Cc3ccc(C(F)(F)F)cc3)c3ccccc31)C1=C(N2)C(=O)c2ccccc2C1=O (stereo not drawn)
2. Cc1ccc2c(c1)C1(C(=O)N2)C2=C(COC2=O)NC2=C1C(=O)c1ccccc1C2=O (stereo not drawn)
3. O=C1OCC2=C1C1(C(=O)Nc3ccc(Cl)cc31)C1=C(N2)C(=O)c2ccccc2C1=O (stereo not drawn)
4. O=C1OCC2=C1C1(C(=O)Nc3ccccc31)C1=C(N2)C(=O)c2ccccc2C1=O (stereo not drawn)

7.37
1.91
1.41
1.98

Each recorded value in this set is attributed to paper PMC11774189.
